Reference source for all entries: the supplement of paper PMC7125110

B1: glmS ribozyme (parent)
chain: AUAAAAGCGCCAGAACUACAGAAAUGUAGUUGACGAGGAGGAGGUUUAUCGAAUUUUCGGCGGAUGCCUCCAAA

variants of: B1; experiment: self-cleavage kobs at 2500 uM GlcN6P; higher = faster cleavage; RNA array; settings: with glucosamine-6-phosphate
Fewer inactive variants are shown than the library holds.
I'd appreciate it if you could supply self-cleavage kobs at 2500 uM GlcN6P values for the items below.

Query string: Please report self-cleavage kobs at 2500 uM GlcN6P for the following variant: C34G U54A A64G
Result string: < 1e-05 s⁻¹

Query string: Please report self-cleavage kobs at 2500 uM GlcN6P for the following variant: C11U C34G G41A U47G
Result string: < 1e-05 s⁻¹

Query string: Please report self-cleavage kobs at 2500 uM GlcN6P for the following variant: C11A G43U U49C C61A G63C
Result string: < 1e-05 s⁻¹

Query string: Please report self-cleavage kobs at 2500 uM GlcN6P for the following variant: G51C U65G
Result string: < 1e-05 s⁻¹

Query string: Please report self-cleavage kobs at 2500 uM GlcN6P for the following variant: C16U G41C G43C A48U U57C
Result string: < 1e-05 s⁻¹
